Listing: IC50 of selected compounds
Biological target: Tyrosine-protein phosphatase non-receptor type 1 (Homo sapiens, UniProt P18031)
Sequence (P18031 whole entry): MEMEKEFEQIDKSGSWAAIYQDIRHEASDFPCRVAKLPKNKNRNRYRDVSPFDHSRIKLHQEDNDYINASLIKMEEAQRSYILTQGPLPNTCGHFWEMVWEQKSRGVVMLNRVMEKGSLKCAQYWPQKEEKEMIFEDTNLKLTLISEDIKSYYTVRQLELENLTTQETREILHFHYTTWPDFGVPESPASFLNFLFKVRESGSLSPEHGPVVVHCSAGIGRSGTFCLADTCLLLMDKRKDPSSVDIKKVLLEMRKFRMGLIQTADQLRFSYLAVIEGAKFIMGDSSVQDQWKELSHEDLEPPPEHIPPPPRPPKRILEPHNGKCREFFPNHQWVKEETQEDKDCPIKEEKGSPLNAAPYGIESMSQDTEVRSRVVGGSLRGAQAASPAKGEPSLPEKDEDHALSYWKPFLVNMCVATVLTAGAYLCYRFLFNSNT
observed_property: IC50 (µM)

• Nc1ccccc1S(=O)(=O)Nc1ccc(-c2nc3cc(NS(=O)(=O)c4ccccc4N)ccc3o2)cc1 = 34
• C=Cc1ccc(S(=O)(=O)Nc2ccc3oc(-c4ccc(NS(=O)(=O)c5ccc(Cl)s5)cc4)nc3c2)cc1 = 7.2
• O=[N+]([O-])c1cc(S(=O)(=O)Nc2ccc(-c3nc4ccccc4o3)cc2)ccc1Cl = 38
• Cc1ccccc1S(=O)(=O)Nc1ccc(-c2nc3cc(NS(=O)(=O)c4ccccc4C)ccc3o2)cc1 = 12
• O=S(=O)(Nc1ccc2oc(-c3ccccc3)nc2c1)c1ccc(O)cc1 = 92
• COc1ccc(Cl)cc1S(=O)(=O)Nc1ccc(-c2nc3ccccc3o2)cc1 = 21
• N#Cc1cccc(S(=O)(=O)Nc2ccc(-c3nc4cc(NS(=O)(=O)c5cccc(C#N)c5)ccc4o3)cc2)c1 = 37
• O=S(=O)(Nc1ccc(-c2nc3cc(NS(=O)(=O)c4ccc5ccccc5c4)ccc3o2)cc1)c1ccc2ccccc2c1 = 4.3
• O=S(=O)(Nc1ccc(-c2nc3cc(NS(=O)(=O)c4ccc(Cl)s4)ccc3o2)cc1)c1ccc(F)c(C(F)(F)F)c1 = 8.6
• O=S(=O)(Nc1ccc(-c2nc3cc(NS(=O)(=O)c4ccccc4Cl)ccc3o2)cc1)c1ccccc1Cl = 16
• O=S(=O)(Nc1ccc2oc(-c3ccc(NS(=O)(=O)c4ccc(Cl)s4)cc3)nc2c1)c1ccc(F)c(C(F)(F)F)c1 = 11
• CS(=O)(=O)Nc1ccc2oc(-c3ccc(NS(=O)(=O)c4ccc(Cl)s4)cc3)nc2c1 = 73
• O=S(=O)(Nc1ccc(-c2nc3ccccc3o2)cc1)c1ccccc1O = 33
• O=S(=O)(Nc1ccc(-c2nc3cc(NS(=O)(=O)c4ccc(Cl)s4)ccc3o2)cc1)c1cccs1 = 4.9
• O=S(=O)(Nc1ccc2oc(-c3ccccc3)nc2c1)c1ccc(Cl)cc1 = 44
